Target: Calcium-dependent protein kinase 1 (Plasmodium falciparum (isolate 3D7))
Experiment: PfCDPK1 kinase inhibitors, biochemical, TCAMS library (AID 1159585);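 further: inhibitors leave more ATP so luminescence rises with inhibition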
Settings: recombinant PfCDPK1, Kinase-Glo ATP depletion luminescence
Entries with a potency or affinity are not part of this list. Activity calls are given as the source filed them. Cut-off not given; nearly all actives show IC50 up to about 0.98 µM.
Measured Quantity: outcome

Observe how each entry below is paired with its result.
[[record]]
compound = "c1ccc2c(NCCCCCCCCCNc3ccnc4ccccc34)ccnc2c1"
target = "Calcium-dependent protein kinase 1 (Plasmodium falciparum (isolate 3D7))"
measured_quantity = "outcome"
assay_value = "inactive"

[[record]]
compound = "COc1ccc(NC(=O)CCNc2cc(C)nc(NCCc3ccc(F)cc3)n2)cc1"
target = "Calcium-dependent protein kinase 1 (Plasmodium falciparum (isolate 3D7))"
measured_quantity = "outcome"
assay_value = "inactive"

[[record]]
compound = "Cc1ccc(CNC(=O)[C@H](CCCN)Nc2nc(Nc3ccccc3)ncc2C)cc1"
target = "Calcium-dependent protein kinase 1 (Plasmodium falciparum (isolate 3D7))"
measured_quantity = "outcome"
assay_value = "inactive"

[[record]]
compound = "O=C(Nc1ccc(OC2CCN(Cc3ccsc3)C2)c(Cl)c1)c1ccco1 (stereo unspecified)"
target = "Calcium-dependent protein kinase 1 (Plasmodium falciparum (isolate 3D7))"
measured_quantity = "outcome"
assay_value = "inactive"

[[record]]
compound = "O=C(Nc1ccc(CCNCc2ccccc2)cc1)Nc1ccc(OC(F)(F)F)cc1"
target = "Calcium-dependent protein kinase 1 (Plasmodium falciparum (isolate 3D7))"
measured_quantity = "outcome"
assay_value = "inactive"

[[record]]
compound = "C=CCc1cc(C2CCN(CCCCNC(=O)c3ccc(-c4ccc(C#N)cc4)cc3)CC2)c(OCC(N)=O)c2c1CCCC2"
target = "Calcium-dependent protein kinase 1 (Plasmodium falciparum (isolate 3D7))"
measured_quantity = "outcome"
assay_value = "inactive"


Incoming: Give outcome for the following compound: CCC(=O)Oc1ccc(NC(=O)c2cccc(OC)c2)cc1
Outgoing: inactive

Incoming: Give outcome for the following compound: Cc1cc(NCc2ccc(F)cc2)nc2cc(O)ccc12
Outgoing: inactive

Incoming: Give outcome for the following compound: c1ccc2cc3c(Nc4ccc(N5CCCCC5)cc4)ccnc3cc2c1
Outgoing: inactive

Incoming: Give outcome for the following compound: O=C(Nc1ccc(OC(F)(F)F)cc1)Nc1ccc([N+](=O)[O-])cc1
Outgoing: inactive

Incoming: Give outcome for the following compound: COc1cccc(C=NNc2cc(C)nc3c(OC)cccc23)c1
Outgoing: inactive

Incoming: Give outcome for the following compound: COc1ccc(NC(=O)c2ccc(-c3nc(-c4cccc(C(F)(F)F)c4)cs3)cc2)cc1N1CCN(C)CC1
Outgoing: inactive

====

Assay: inhibition of 3D7 malaria parasite growth – strain 3D7 (AID 2306);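 further: 0% = DMSO wells and 100% = chloroquine plus artemisinin control wells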
Details: P. falciparum 3D7 erythrocytic growth, LDH absorbance, 72 h; at 2 µM; active compounds read high
Reported growth inhibition is given for each of the following compounds.
Quick reminder: number only, in %, skip the unit.

[[record]]
compound = "COC(=O)c1cccc(CNCc2ccc(-c3cccc(-c4nc5ccc(C(F)(F)F)cc5[nH]4)c3)cc2)c1"
measured_quantity = "growth inhibition"
unit_info = "%"
assay_value = 102

[[record]]
compound = "Cc1sc(CNCCCNc2cc(=O)c3ccccc3[nH]2)c(C(F)(F)F)c1C"
measured_quantity = "growth inhibition"
unit_info = "%"
assay_value = 99

[[record]]
compound = "COCCSc1nc2scc(C)c2c(=O)n1Cc1cccc(OC)c1"
measured_quantity = "growth inhibition"
unit_info = "%"
assay_value = 92


Incoming: Give growth inhibition for the following compound: O=C(N[C@@H](Cc1ccccc1)C(=O)NCCN1CCCC1)c1ccc(O)c(-c2ccc(Cl)c(Cl)c2)c1
Outgoing: 95

Incoming: Give growth inhibition for the following compound: CC1=C(C(=O)OCCOCc2ccccc2)C(c2ccccc2C(F)(F)F)C(C(=O)OCCOCc2ccccc2)=C(C)N1
Outgoing: 89

Incoming: Give growth inhibition for the following compound: COc1ccccc1CCN1CCC(CN(C)Cc2ccc(O)c(Cl)c2)CC1
Outgoing: 101

Incoming: Give growth inhibition for the following compound: Cc1cc2ccccc2n1CC(=O)N1CC(C(=O)N2CCCCC2)Oc2ccccc21 (configuration not stated)
Outgoing: 99

Incoming: Give growth inhibition for the following compound: CCOc1cc(C(=O)NC2CCN(Cc3ccccc3)CC2)ccc1-c1nc2cc(Cl)c(Cl)cc2[nH]1
Outgoing: 101

Incoming: Give growth inhibition for the following compound: Fc1cccc(COc2ccc(Nc3ncnc4sc(C#C[C@H]5CCCN5)cc34)cc2F)c1
Outgoing: 98

Incoming: Give growth inhibition for the following compound: O=C(Nc1cccc(Cl)c1)N[C@H]1CCN(Cc2ccc(OCCCN3CCCCC3)cc2)C1
Outgoing: 99

Incoming: Give growth inhibition for the following compound: CCc1c(CCNCCCCCCNCCc2ccc(Br)cc2)ccc(O)c1O
Outgoing: 95

Incoming: Give growth inhibition for the following compound: CC(C)CC(=O)N1CCNC[C@@H]1C(=O)NCc1ccc(Cl)c(Cl)c1
Outgoing: 99

Incoming: Give growth inhibition for the following compound: O=C(NCCCCN1CCC(c2c[nH]c3ccccc23)CC1)c1sc(-c2ccc(C(F)(F)F)cc2)nc1CO
Outgoing: 94

Incoming: Give growth inhibition for the following compound: O=C(NCCCCN1CCC(O)(c2ccc3c(c2)OCO3)CC1)c1ccc(NC(=O)c2ccc(Cl)cc2)cc1
Outgoing: 86

Incoming: Give growth inhibition for the following compound: CCC[C@@H]([C@@H](CC(C)C)C(=O)N[C@@H](CCCNc1nccc(C(F)(F)F)n1)C(=O)Nc1nccs1)N(O)C=O
Outgoing: 99

Measured values drawn from PubChem BioAssay for this set.
